# MEASURED_ON: Serine/threonine-protein kinase Chk2 (Homo sapiens)
# TEST_CONDITIONS: at 0.1 µM
# Description: GSK_PKIS: CHEK2 mean inhibition at 0.1 uM [Nanosyn]
Measured inhibition, listed per entry.
PROPERTY_NAME: inhibition (%)

* COc1cccc(-n2ncc3c(N/N=C/c4ccc(C(=O)NCCN(C)C)cc4)ncnc32)c1 | 0.95
* CC1=C(C(=O)Nc2ccc3[nH]nc(C)c3c2)C(c2ccc(C(F)(F)F)cc2)CC(=O)N1 (stereo unspecified) | 1.95
* FC(F)(F)CNc1nccc(-c2cnn3ncccc23)n1 | 1.64
* CS(=O)(=O)Nc1ccc(-c2ccc3c(NC(=O)C4CC4)n[nH]c3c2)cc1 | 4.58
* CCS(=O)(=O)c1ccc(OC)c(Nc2ncc(-c3cccc(C(C)=O)c3)o2)c1 | 1.62
* CCS(=O)(=O)c1ccc(OC)c(Nc2ncc(-c3cccc(F)c3)o2)c1 | 2.75
* CCOc1ccc2c(-c3ccnc(Nc4cc(OC)cc(C(F)(F)F)c4)n3)cnn2n1 | -0.97
* O=C(O[C@H]1CN[C@H](C#Cc2cc3ncnc(Nc4ccc(OCc5cccc(F)c5)c(Cl)c4)c3s2)C1)N1CCOCC1 | -1.01
* CC1=C(C(=O)Nc2ccc3[nH]ncc3c2)C(c2ccc(F)cc2)N=C(c2ccc(C(F)(F)F)nc2)N1 (stereo unspecified) | 1.5
* Fc1ccc(Nc2nccc(-c3c(-c4ccc(C(F)(F)F)cc4)nn4ncccc34)n2)cc1F | 3.02
* CCn1c(-c2nonc2N)nc2cncc(C(=O)NCCNC)c21 | 4.63
* Cn1c(-c2nonc2N)nc2cnccc21 | 2.16
* OCCCNc1nccc(-c2c(-c3ccc(F)cc3)nn3cc(C(F)(F)F)ccc23)n1 | 2.3
* CC1(C)CC(n2cnc(-c3ccc(F)cc3)c2-c2ccnc(N)n2)CC(C)(C)N1 | -4.96
* COc1cc(N2CCN(C(C)C)CC2)ccc1Nc1nc(Nc2cccc3ncccc23)c2cc[nH]c2n1 | -0.49
* COc1cc(Nc2ncc(-c3ccccc3)o2)cc(OC)c1 | 4.6

Values were extracted from ChEMBL document CHEMBL1961873.
